Reference for the values: PubChem BioAssay

Assay: binders of probe aFST on microarray, primary screen, stem cell growth factor project, biochemical, small-molecule microarray, fluorescence 635/667 (AID 1086);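 further: score merges 667 nm fluorescence with signal-to-noise of each printed compound spot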
Conditions: higher = more signal
Exercise: for every item that follows, state its recorded composite z-score.
Give bare numbers.

The following compounds have reported results that may help.
| compound | composite z-score |
| --- | --- |
| CCN1C(=O)[C@H]2[C@H]3[C@H](O)[C@H](O)CC(=NOC(C)CN4CCCCc5nc(C)c(C)cc54)[C@@H]3CC[C@H]2C1=O (stereo partly specified) | 0.253 |
| CCCC[C@H]1OB(O)C[C@H]2C1=C(C)C[C@H]1C(=O)N(C)C(=O)[C@H]12 | 0.349 |
| COC(=O)CC=C[C@H](C)[C@H](CO)NS(=O)(=O)c1ccc(C)cc1 | 0.12 |
| COC(=O)[C@H](C)NC(=O)CCC1CC(OC(=O)NCc2ccc3c(c2)OCO3)CC2(CCCC(COC(=O)NCCOc3ccccc3)O2)O1 (stereo partly specified) | 0.91 |
| COc1ccc(O[C@H]2C=C[C@@H](c3ccccc3)O[C@@H]2COC(=O)CCC(C)=NOC(C)CN2CCCCc3nc(C)c(C)cc32)cc1 (stereo partly specified) | -0.62 |

// for each compound in input: emit composite z-score
1. COc1cccc([C@H]2Oc3ccc(OC)cc3C(=NOC(C)CN3CCCc4nc(C)c(C)cc43)[C@@H]2O)c1 (stereo partly specified)
2. CC(=O)OC[C@H]1O[C@H](CCON=C(C)CCN2CCc3nc(-c4ccccc4)c(-c4ccccc4)cc3C2)C=C[C@@H]1OC(C)=O
3. CC(CCN1CCc2nc(-c3ccccc3)c(-c3ccccc3)cc2C1)=NOC(C)CN1CCCCc2nc(C)c(C)cc21 (stereo unspecified)
4. Cc1ccc(F)cc1S(=O)(=O)N[C@@H]1CCN(Cc2ccc(CC(C)C)cc2)C1
5. COc1ccc([Si](C)(C)[C@@H]2[C@@H](CCO)O[C@]3(C(=O)N(Cc4ccc(NC(C)=O)cc4)c4ccccc43)[C@H]2C)cc1
6. COC(=O)[C@H](C)NC(=O)CCC1CC(OC(=O)NCc2cccc3ccccc23)CC2(CCCC(COC(=O)NCCc3ccc(Cl)cc3)O2)O1 (stereo partly specified)

*A*
-0.055
-0.105
0.465
-0.493
0.17
0.171

// for each compound in input: emit composite z-score
1. COC(=O)[C@H]1COC(c2ccc(OCCCO)cc2)=N1
2. COC(=O)CC=C[C@@H](C)[C@@H](C=NO[C@H](C)c1cn([C@@H]2COC[C@H]2O)nn1)OC
3. COCCOC(=O)N1C(=O)[C@@]2(c3cc(C#CCNC(N)=O)ccc31)[C@H](c1ccc(O)cc1)N1[C@H](c3ccccc3)[C@H](c3ccccc3)OC(=O)[C@H]1[C@@H]2C(=O)N1CCCCCCC1
4. Cc1ccc(S(=O)(=O)N[C@@H]2COC(=O)[C@H](C)COC(=O)CC=C[C@H]2C)cc1
5. COc1ccc(OC[C@H]2Cc3c(-c4ccccc4)nc4c(c3CO2)CN(CCOc2ccccc2)CC4)cc1
6. CC(C)C[C@@H]1NC(=O)[C@H]2C[C@@H](C(=O)O)[C@@H](c3ccc(O)cc3)N2C1=O

*A*
1: 0.179; 2: 0.0889; 3: 1.2; 4: -0.0468; 5: 0.491; 6: 0.123

// for each compound in input: emit composite z-score
1. COC(=O)C1=C(C)N(Cc2ccccc2)[C@]23O[C@](C(=O)OC)(C(=O)N2[C@@H]1c1ccccc1)[C@H]1CCOC(=O)[C@H]13
2. CCOC(=O)NN=C1C[C@@H](O)[C@@H](O)[C@@H]2[C@@H]3C(=O)N(C(C)(C)C)C(=O)[C@@H]3CC[C@@H]12
3. CCOC(=O)[C@H](CC(C)C)NC(=O)CCC1CC(OC(=O)NCc2cccc3ccccc23)CC2(CCCC(COC(=O)NCCc3ccccc3OC)O2)O1 (stereo partly specified)
4. COCC(=C=CC[C@@H](O)c1ccccc1OCCO)CCO
5. NCCCCCNC(=O)[C@@H]1C[C@@H]2C(=O)N3CCC[C@H]3C(=O)N2[C@@H]1c1cccc(OCCO)c1
6. CC(=O)OC[C@H]1O[C@H](CC=NOC[C@@H](C)[C@H](OCc2ccccc2)C(C)C)C=C[C@@H]1OC(C)=O
7. CC(C)[Si]1(C(C)C)O[C@@H](c2ccccc2)c2cc(C3CC3)nc(-c3ccccc3)c21
8. CC(C)(C)OC(=O)CC[C@]1(C(N)=O)COC(c2ccc(OCCCO)cc2)=N1

*A*
0.0592
0.577
0.402
0.175
1.68
-0.341
-0.0973
1.19
